Some compounds, each annotated with its measured absolute EC50 for viability.
Test system: BMSC (primary human bone marrow mesenchymal stromal cells)
Assay: absolute EC50 for viability; higher = less sensitive
reported endpoint: absolute EC50 for viability

1) COCCNCc1ccc(-c2cc3nccc(Oc4ccc(NC(=S)NC(=O)Cc5ccc(F)cc5)cc4F)c3s2)nc1 [Glesatinib]	> 2.5 µM
2) O=C(O)c1ccc(O)c2ncccc12 [IOX-1]	> 100 µM
3) CC(C)(C)c1cc(NC(=O)Nc2ccc(Oc3ccnc4[nH]c(=O)cnc34)cc2F)n(-c2ccccc2)n1	> 25 µM
4) Nc1ncnc2c1nc(Cl)n2[C@@H]1O[C@H](CO)[C@@H](O)[C@H]1O [8-chloro-adenosine]	5.35 µM
